Target: GDP-loaded K-Ras (1-169) C51S, C80L, C118S (Homo sapiens, UniProt P01116, C118S/C51S/C80L)
Construct: GDP-loaded K-Ras (1-169) C51S, C80L, C118S
Assay: K-Ras WT (GDP) cross-linking assay (conjugate formation, TOF mass spectrometry)
Type: binding
Settings: Table 5; percent covalently modified K-Ras by MS; room temperature; typical compound conc. 2, 10, 25 μM, endpoints 1 and 24 h
REPORTED_PROPERTY: WT x-linking (%)

* COCCN=C=N[C@H]1CCN(c2nc(OC[C@@H]3CCCN3C)nc3c2CCN(c2cccc4cccc(C)c24)C3)C[C@@H]1CC#N | ++ (20 < x ≤ 100)
* COCCN1C[C@@H]1C(=O)N1CCN(c2nc(OC[C@@H]3CCCN3C)nc3c2CCN(c2cccc4cccc(C)c24)C3)C[C@@H]1CC#N (stereo partly drawn) | + (0 < x ≤ 20)
* COCC1(N=C=N[C@@H]2CCN(c3nc(OC[C@@H]4CCCN4C)nc4c3CCN(c3cccc5cccc(C)c35)C4)C[C@@H]2CC#N)CC1 | + (0 < x ≤ 20)
* CN1CCC[C@H]1COc1nc2c(c(N3CCN(C(=O)[C@H]4CN4)[C@@H](CC#N)C3)n1)CCN(c1cc(O)cc3ccccc13)C2 | 0
* COCCN=C=N[C@H]1C[C@H](Nc2nc(OC[C@@H]3CCCN3C)nc3c2CCN(c2cccc4cccc(C)c24)C3)C1 | ++ (20 < x ≤ 100)
* Cc1cccc2cccc(N3CCc4c(nc(OC[C@@H]5CCCN5C)nc4N4CCC(N=C=NCCc5cccs5)CC4)C3)c12 | + (0 < x ≤ 20)
* Cc1cccc2cccc(N3CCc4c(nc(OC[C@@H]5CCCN5C)nc4N4CCN(C(=O)[C@@H]5CN5C)[C@@H](CC#N)C4)C3)c12 (stereo partly drawn) | 0
* Cc1cccc2cccc(N3CCc4c(nc(OC[C@@H]5CCCN5C)nc4N4CCC(N=C=NC5CCN(C)CC5)CC4)C3)c12 | ++ (20 < x ≤ 100)
* CC(=O)N1C[C@@H]1CN1CCN(c2nc(OC[C@@H]3CCCN3C)nc3c2CCN(c2cccc4cccc(C)c24)C3)C[C@@H]1CC#N | + (0 < x ≤ 20)
* Cc1ccnc(C(C)C)c1-n1c(=O)nc(N2C[C@@H](C)N(C(=O)[C@H]3CN3)C[C@@H]2C)c2cc(F)c(-c3c(O)cccc3F)nc21 | 0
* Cc1ccnc(C(C)C)c1-n1c(=O)nc(N2[C@H](C)CN(C(=O)[C@@H]3CN3)C[C@@H]2C)c2cc(F)c(-c3c(O)cccc3F)nc21 | 0
* Cc1cccc2cccc(N3CCc4c(nc(OC[C@@H]5CCCN5C)nc4N4CCC(N=C=NCc5cccs5)CC4)C3)c12 | + (0 < x ≤ 20)
* Cc1cccc2cccc(N3CCc4c(nc(OC[C@@H]5CCCN5C)nc4N4CCN(C(=O)[C@H]5CN5)[C@@H](CC#N)C4)C3)c12 | + (0 < x ≤ 20)
* Cc1cccc2cccc(N3CCc4c(nc(OC[C@@H]5CCCN5C)nc4N4CCN(C(=O)[C@H]5CN5Cc5ccccc5)[C@@H](CC#N)C4)C3)c12 (stereo partly drawn) | + (0 < x ≤ 20)
* Cc1ccnc(C(C)C)c1-n1c(=O)nc(N2C[C@H](C)N(C(=O)[C@@H]3CN3)C[C@H]2C)c2cc(F)c(-c3c(O)cccc3F)nc21 | 0
